# protocol: Half life in mouse liver cytoplasm
# Assay type: ADME, subcellular
In this section, each of the compounds is paired with its reported half-life.

smiles-str | half-life
Cc1ccc(C#Cc2cccc(-c3nn(-c4nc(C(=O)O)cs4)c(CC4CC4)c3Cc3ccc(S(N)(=O)=O)c(F)c3)c2)s1 | > 2 h

Now, please, on to the next compound.
Q: Tell me its half-life given Cc1ccc(C#Cc2cc(-c3nn(-c4nc(C(=O)O)cs4)c(CC4CC4)c3Cc3ccc(S(N)(=O)=O)c(F)c3)ccc2F)s1 as the entry.
Ans: > 2 h

----------
# system-under-test: L-lactate dehydrogenase A chain (Homo sapiens)
# protocol: Inhibition of LDHA in human MIA PaCa-2 cells assessed as decrease in lactate production incubated for 2 hrs by lactate oxidase-coupled fluorescence based assay
# Type: cell-based
attribute-measured: pIC50
Scale explanation: pIC50 corresponds to minus log10 of a concentration expressed in moles per litre.

Worked cases, pIC50 given:
smiles-str | pIC50
NS(=O)(=O)c1ccc(Cc2c(-c3ccc(F)c(C#CC4CCNCC4)c3)nn(-c3nc(C(=O)O)cs3)c2CC2CC2)cc1F | 5.05
CCCC#Cc1cc(-c2nn(-c3nc(C(=O)O)cs3)c(CC3CC3)c2Cc2ccc(S(N)(=O)=O)c(F)c2)ccc1F | 6.44
Cc1cc(C#Cc2cccc(-c3nn(-c4nc(C(=O)O)cs4)c(CCC4CC4)c3Cc3ccc(S(N)(=O)=O)c(F)c3)c2)c(C)s1 | 6.73
NS(=O)(=O)c1ccc(Cc2c(-c3ccc(F)c(C#CCC4CCCC4)c3)nn(-c3nc(C(=O)O)cs3)c2CC2CC2)cc1F | 6.37
Cc1cnc(C#Cc2cccc(-c3nn(-c4nc(C(=O)O)cs4)c(CC4CC4)c3Cc3ccc(S(N)(=O)=O)c(F)c3)c2)s1 | 6.31

Q: Dear colleague, please send me the reported pIC50 for CC(C)(C)c1ccc(C#Cc2cc(-c3nn(-c4nc(C(=O)O)cs4)c(CC4CC4)c3Cc3ccc(S(N)(=O)=O)c(F)c3)ccc2F)s1 when you can.
Ans: 6.29

Q: # return recorded pIC50 for input NS(=O)(=O)c1ccc(Cc2c(-c3cccc(C#Cc4ccc(C5CC5)s4)c3)nn(-c3nc(C(=O)O)cs3)c2CCC2CC2)cc1F
Ans: 6.41

----------
# protocol: Terminal half life in CD-1 mouse at 10 mg/kg, iv and measured up to 24 hrs by LC/MS-MS analysis
# Type: ADME, organism-based
# condition-parameters: in vivo
attribute-measured: beta t1/2
Quick note: unit goes after the number.

smiles-str | beta t1/2
Cc1ccc(C#Cc2cc(-c3nn(-c4nc(C(=O)O)cs4)c(CCC4CC4)c3Cc3ccc(S(N)(=O)=O)c(F)c3)ccc2F)s1 | 6.5 h
Cc1ccc(C#Cc2cccc(-c3nn(-c4nc(C(=O)O)cs4)c(CC4CC4)c3Cc3ccc(S(N)(=O)=O)c(F)c3)c2)o1 | 5 h

Here's the next entry for you.
Q: Output beta t1/2 of NS(=O)(=O)c1ccc(Cc2c(-c3ccc(F)c(/C=C/C4CCCC4)c3)nn(-c3nc(C(=O)O)cs3)c2CC2CC2)cc1F
Ans: 5.5 h

----------
# system-under-test: CYP2B6 (Homo sapiens, UniProt P20813)
# Sequence (P20813 whole entry): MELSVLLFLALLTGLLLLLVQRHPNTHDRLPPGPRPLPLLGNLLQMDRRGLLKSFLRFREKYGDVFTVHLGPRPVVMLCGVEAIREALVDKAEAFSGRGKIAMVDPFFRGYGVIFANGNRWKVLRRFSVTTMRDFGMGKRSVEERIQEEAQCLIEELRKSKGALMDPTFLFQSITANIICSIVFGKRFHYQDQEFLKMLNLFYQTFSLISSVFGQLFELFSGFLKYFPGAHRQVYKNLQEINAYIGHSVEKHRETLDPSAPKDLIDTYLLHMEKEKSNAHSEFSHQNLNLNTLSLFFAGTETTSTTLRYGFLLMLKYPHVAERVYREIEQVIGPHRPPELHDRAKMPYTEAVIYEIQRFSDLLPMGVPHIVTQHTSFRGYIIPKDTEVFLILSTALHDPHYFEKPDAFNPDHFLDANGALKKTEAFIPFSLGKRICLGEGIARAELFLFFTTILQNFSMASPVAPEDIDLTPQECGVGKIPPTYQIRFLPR
# protocol: Inhibition of CYP2B6 (unknown origin) at 10 uM relative to control
# Type: ADME
attribute-measured: inhibition at 10 µM
// return the numeric value with its unit appended

Q: Output reported inhibition at 10 µM of the molecule Cc1ccc(C#Cc2cc(-c3nn(-c4nc(C(=O)O)cs4)c(CC4CC4)c3Cc3ccc(S(N)(=O)=O)c(F)c3)ccc2F)s1 on CYP2B6 (Homo sapiens, UniProt P20813).
Ans: 46%
